Every entry's value here was drawn from paper PMC5979327.

Biological target: guinea pig H3 receptor (jejunum) (Cavia porcellus)
Construct: Whole jejunum segments (2 cm) were prepared and mounted between two platinum electrodes; from tissue; host or cells: guinea pig jejunum (small intestine)
Sequence (Q9JI35 whole entry): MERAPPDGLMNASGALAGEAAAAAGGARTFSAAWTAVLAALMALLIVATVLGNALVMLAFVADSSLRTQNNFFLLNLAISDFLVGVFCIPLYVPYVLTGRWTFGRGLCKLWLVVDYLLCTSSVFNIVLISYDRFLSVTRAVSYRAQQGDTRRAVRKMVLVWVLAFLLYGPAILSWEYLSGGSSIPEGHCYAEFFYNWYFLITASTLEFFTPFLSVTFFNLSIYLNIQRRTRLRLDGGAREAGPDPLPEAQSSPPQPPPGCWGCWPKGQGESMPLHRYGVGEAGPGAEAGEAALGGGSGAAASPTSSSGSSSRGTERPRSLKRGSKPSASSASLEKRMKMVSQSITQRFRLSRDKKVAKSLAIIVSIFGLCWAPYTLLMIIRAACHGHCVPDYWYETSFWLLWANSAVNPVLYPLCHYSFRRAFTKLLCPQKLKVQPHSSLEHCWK
Assay: H3 antagonistic activity against H3 agonist-induced inhibition of the electrically evoked contraction of the guinea pig jejunum
Assay type: biochemical
Conditions: vs (R)-α-methylhistamine, Schild plot, dihydrogenoxolate salts, read-out: pA2 (sem) (converted)
test.readout: Kb (nM)

Previously resolved entries follow.
* CCCN(C)CCCCCOC1CCN(CCCc2cc3ccccc3o2)CC1 [1c] | 77.6
* CCCN(C)CCCCCOCCCN(C)CCCc1cc2ccccc2o1 [2c] | 427
* CCCN(C)CCCCCOC1CCN(CCc2ccccc2)CC1 [1e] | 214

P. CCCN(C)CCCCCOCCCN(C)CCCc1ccccc1 [2f]
Q. CCCN(C)CCCCCOCCCN(C)CCc1cc2ccccc2o1 [2b]
R. CCCN(C)CCCCCOC1CCN(CCCc2ccccc2)CC1 [1f]
S. CCCN(C)CCCCCOC1CCN(CCc2cc3ccccc3o2)CC1 [1b]
Order the entries by their reported Kb, beginning at the minimum. Form entry: ranked labels (order as requested).
R, S, P, Q
(R: 30.9 nM, S: 55 nM, P: 162 nM, Q: 479 nM)

----------
Biological target: rat histamine H3 receptor (rH3R) (Rattus norvegicus, UniProt Q9QYN8)
Sequence (Q9QYN8 whole entry): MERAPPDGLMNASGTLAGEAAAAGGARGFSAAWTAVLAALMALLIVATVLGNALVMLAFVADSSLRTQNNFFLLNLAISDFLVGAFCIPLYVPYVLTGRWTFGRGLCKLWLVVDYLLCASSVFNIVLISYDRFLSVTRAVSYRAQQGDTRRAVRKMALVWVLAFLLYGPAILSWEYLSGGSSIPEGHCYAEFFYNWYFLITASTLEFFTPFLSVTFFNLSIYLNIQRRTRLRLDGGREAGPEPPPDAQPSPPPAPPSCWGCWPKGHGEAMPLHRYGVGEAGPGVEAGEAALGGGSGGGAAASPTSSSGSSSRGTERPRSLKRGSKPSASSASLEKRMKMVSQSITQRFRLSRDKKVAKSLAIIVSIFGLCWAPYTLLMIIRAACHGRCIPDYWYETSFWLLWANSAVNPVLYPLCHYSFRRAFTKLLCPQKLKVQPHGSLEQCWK
test.readout: pKd
# log scale: pKd equals minus log10 of the concentration in mol/L

Lab note: need pKd for CNCCc1cnc[nH]1 [[^3H]-N^α-MH, [^3H]-N^α-methylhistamine, reference compound] on rat histamine H3 receptor (rH3R) (Rattus norvegicus, UniProt Q9QYN8), anyone have it?
8.57

----------
Target: rat histamine H3 receptor (rH3R) (Rattus norvegicus)
test.readout: Ki (nM)
Numeric answer only, unit nM assumed.

Fill blank: measured Ki of the molecule `CCCN(C)CCCCCOC1CCN(Cc2cc3ccccc3o2)CC1` is ____.
12.6
